# targetSystem: EGFR L858R/T790M (H1975 cells) (Homo sapiens, UniProt P00533, L858R/T790M)
# Construct: host or cells: H1975
# Sequence (P00533 25-1210 T790M/L858R): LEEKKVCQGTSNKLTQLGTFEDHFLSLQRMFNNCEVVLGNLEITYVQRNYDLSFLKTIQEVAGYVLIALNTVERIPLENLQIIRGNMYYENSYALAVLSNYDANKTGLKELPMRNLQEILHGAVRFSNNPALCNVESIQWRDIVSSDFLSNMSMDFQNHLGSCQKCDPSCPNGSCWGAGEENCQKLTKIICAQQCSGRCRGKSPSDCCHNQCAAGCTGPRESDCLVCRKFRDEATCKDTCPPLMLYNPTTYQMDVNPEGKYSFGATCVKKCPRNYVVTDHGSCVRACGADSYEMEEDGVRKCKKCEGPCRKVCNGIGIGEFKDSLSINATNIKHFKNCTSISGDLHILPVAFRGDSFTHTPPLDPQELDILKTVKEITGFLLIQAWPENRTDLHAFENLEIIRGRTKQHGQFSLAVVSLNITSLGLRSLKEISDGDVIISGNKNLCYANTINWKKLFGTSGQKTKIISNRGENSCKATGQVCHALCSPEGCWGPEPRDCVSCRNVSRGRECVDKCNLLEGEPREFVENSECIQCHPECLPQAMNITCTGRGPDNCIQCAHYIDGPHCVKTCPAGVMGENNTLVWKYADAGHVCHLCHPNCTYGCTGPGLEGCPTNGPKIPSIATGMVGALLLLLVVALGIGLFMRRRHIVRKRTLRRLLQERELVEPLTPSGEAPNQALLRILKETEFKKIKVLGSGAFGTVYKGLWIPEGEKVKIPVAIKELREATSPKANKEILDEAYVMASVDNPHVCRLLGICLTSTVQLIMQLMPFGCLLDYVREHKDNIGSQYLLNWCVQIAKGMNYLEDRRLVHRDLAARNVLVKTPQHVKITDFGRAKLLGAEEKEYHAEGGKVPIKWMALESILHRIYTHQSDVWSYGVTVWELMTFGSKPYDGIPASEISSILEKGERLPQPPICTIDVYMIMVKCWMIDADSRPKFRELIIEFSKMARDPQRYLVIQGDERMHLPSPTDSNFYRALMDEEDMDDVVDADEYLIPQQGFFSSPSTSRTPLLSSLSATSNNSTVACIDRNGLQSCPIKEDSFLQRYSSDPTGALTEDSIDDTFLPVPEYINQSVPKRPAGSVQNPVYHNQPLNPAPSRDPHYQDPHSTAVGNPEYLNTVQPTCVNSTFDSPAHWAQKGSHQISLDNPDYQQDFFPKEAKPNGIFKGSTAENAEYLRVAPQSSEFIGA
# experimentalDetails: Inhibition of EGFR autophosphorylation (p-EGFR Y1068, western blot) in H1975 cells
# Assay type: cell-based
# conditionSummary: 3 h incubation, densitometry of western blots
quantityMeasured: IC50 (µM)
Answers are plain numbers, in µM.

Field IC50 (EGFR L858R/T790M (H1975 cells) (Homo sapiens, UniProt P00533, L858R/T790M)), entry CCOc1cc2ncc(C#N)c(Nc3ccc(F)c(Cl)c3)c2cc1NC(=O)/C=C/CNCc1cn([C@@H]2OC(CO)[C@@H](O)C(O)C2F)nn1 (stereo partly shown) [FED20] : 7.1

---

# targetSystem: wildtype EGFR (Homo sapiens, UniProt P00533)
# Construct: A549
# Sequence (P00533 25-1210): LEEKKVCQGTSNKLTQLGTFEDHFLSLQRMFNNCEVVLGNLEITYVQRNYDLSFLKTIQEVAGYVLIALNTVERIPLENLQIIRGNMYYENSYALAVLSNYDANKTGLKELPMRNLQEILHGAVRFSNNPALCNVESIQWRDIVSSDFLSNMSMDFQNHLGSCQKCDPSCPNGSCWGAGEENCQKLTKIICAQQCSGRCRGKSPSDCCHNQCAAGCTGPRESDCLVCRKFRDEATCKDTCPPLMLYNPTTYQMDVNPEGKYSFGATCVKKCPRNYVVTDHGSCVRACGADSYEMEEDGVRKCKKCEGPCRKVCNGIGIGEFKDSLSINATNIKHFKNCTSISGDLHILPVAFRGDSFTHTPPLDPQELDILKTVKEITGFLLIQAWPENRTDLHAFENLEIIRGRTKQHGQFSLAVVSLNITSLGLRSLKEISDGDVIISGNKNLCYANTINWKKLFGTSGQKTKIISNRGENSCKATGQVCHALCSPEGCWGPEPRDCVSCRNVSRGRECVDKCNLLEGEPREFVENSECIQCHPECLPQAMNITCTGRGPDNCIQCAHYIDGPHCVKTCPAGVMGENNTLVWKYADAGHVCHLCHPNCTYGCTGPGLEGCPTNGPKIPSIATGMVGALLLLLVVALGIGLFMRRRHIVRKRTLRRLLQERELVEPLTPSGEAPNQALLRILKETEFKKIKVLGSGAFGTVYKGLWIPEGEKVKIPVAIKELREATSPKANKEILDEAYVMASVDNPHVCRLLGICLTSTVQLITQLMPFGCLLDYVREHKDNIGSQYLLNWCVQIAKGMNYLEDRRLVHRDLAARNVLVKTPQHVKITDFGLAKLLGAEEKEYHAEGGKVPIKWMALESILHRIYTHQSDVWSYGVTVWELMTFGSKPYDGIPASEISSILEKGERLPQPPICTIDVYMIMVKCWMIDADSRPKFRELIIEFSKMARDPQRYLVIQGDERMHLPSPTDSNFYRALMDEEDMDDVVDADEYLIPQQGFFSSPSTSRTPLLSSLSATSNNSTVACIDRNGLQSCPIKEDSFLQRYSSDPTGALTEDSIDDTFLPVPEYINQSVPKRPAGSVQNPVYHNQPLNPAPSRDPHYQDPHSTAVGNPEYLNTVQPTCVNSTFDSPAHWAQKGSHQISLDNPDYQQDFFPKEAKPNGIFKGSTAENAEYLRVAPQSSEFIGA
# experimentalDetails: Inhibition of EGFR autophosphorylation in wildtype EGFR expressing A549 and H358 cells
# conditionSummary: read-out: IC50 p-EGFR Y1068 in wildtype EGFR expressing cells
# Protocol: Affinity of the cyanoquinolines for EGFR was established by measuring their inhibition of EGFR autophosphorylation via western blot. Cells were seeded in 6 well plates and following 24 h of growth, were subject to overnight serum starvation. […] Lysates were analysed by western blot to measure changes to p-EGFR Y1068. […]
pIC50: −log10 of the molar value.
quantityMeasured: pIC50

# compound CCOc1cc2ncc(C#N)c(Nc3ccc(F)c(Cl)c3)c2cc1NC(=O)/C=C/CNCc1cn(CCF)nn1 ; its pIC50 = 6.15 to 6.22

---

# experimentalDetails: Caco2 transwell assay
# Format: in vitro ADME, human
# conditionSummary: human, Caco-2, pre-treatment with zosuquidar; read-out: efflux (permeability) ratio after pre-treatment with zosuquidar
quantityMeasured: efflux ratio at 120 min, 50 μM
Answers are plain numbers.

efflux ratio at 120 min, 50 μM in this record for CC[C@]1(O)C[C@@H]2CN(CCc3c([nH]c4ccccc34)[C@@](C(=O)OC)(c3cc4c(cc3OC)N(C)[C@H]3[C@@](O)(C(=O)OC)[C@H](OC(C)=O)[C@]5(CC)C=CCN6CC[C@]43[C@@H]65)C2)C1 [Vinblastine, reference compound] : 1.7

---

Would you kindly list efflux ratio at 120 min for each of these compounds?
# experimentalDetails: Caco2 transwell assay
# Assay type: in vitro ADME, human
# conditionSummary: human, Caco-2, no inhibitor; 10 μM cyanoquinoline or 50 μM vinblastine, 120 min; read-out: efflux ratio (Papp B-A / Papp A-B)

Please give efflux ratio at 120 min for each item listed below.
1. CCOc1cc2ncc(C#N)c(Nc3ccc(F)c(Cl)c3)c2cc1NC(=O)/C=C/CN(C)C [EKB-569, pelitinib, reference compound]
2. CCOc1cc2ncc(C#N)c(Nc3ccc(F)c(Cl)c3)c2cc1N
3. CCOc1cc2ncc(C#N)c(Nc3ccc(F)c(Cl)c3)c2cc1NC(=O)/C=C/CNCc1cn([C@@H]2OC(CO)[C@@H](O)C(O)C2F)nn1 (stereo partly shown)
4. CCOc1cc2ncc(C#N)c(Nc3ccc(F)c(Cl)c3)c2cc1NC(=O)/C=C/CNC

1: > 3; 2: < 1; 3: 1.3; 4: > 3

---

# targetSystem: wildtype EGFR (A549 cells) (Homo sapiens)
# Sequence (P00533 25-1210): as the sequence (P00533 25-1210) above
# experimentalDetails: Inhibition of EGFR autophosphorylation (p-EGFR Y1068, western blot) in A549 cells
# conditionSummary: 3 h incubation, EGF stimulated
quantityMeasured: IC50 (µM)
Numbers only, in µM.

Entry under test: CCOc1cc2ncc(C#N)c(Nc3ccc(F)c(Cl)c3)c2cc1NC(=O)/C=C/CNCc1cn(CCF)nn1 . Its IC50 was 0.7
